Assay: NCI Yeast Anticancer Drug Screen. Data for the bub3 strain (AID 167)
Conditions: S. cerevisiae bub3 mutant strain, at 50.0 µM (retest, dose inferred, filed as 5.0), active compounds read high
This is part of a sample that, as a whole, favours compounds with a hit. Of some 79,000 tested, about 15% had one in any assay.
So I've got a bunch of compounds here, and I need their growth inhibition values.
Reply numerically in %, unit not repeated.

Look up growth inhibition for this compound: O=C(Nc1cccnc1)c1ccc(CSc2ccc(Cl)cc2)o1 63

Look up growth inhibition for this compound: CC(=O)Oc1ccc(-c2ccccc2)cc1Br 98

Look up growth inhibition for this compound: COC(=O)c1nnn(-c2ccc(Cl)cc2Cl)c1C(=O)c1ccc(Cl)c(Cl)c1 99

Look up growth inhibition for this compound: CN(C)c1ccc(C2(c3ccc(N(C)C)cc3)OC(=O)c3ccccc32)cc1 61

Look up growth inhibition for this compound: Cc1cc(O)c(O)cc1C/C=C/c1ccccc1 96

Look up growth inhibition for this compound: C=CCOC(=O)SC(=S)OCN(C)C 98

Look up growth inhibition for this compound: O=C1CN=C(c2ccccc2)N(c2ccccc2)N1 97

Look up growth inhibition for this compound: Nc1ccc(Oc2ccccc2)cc1 -18

Look up growth inhibition for this compound: N=C(N)c1ccc(/C=C/c2ccc(C(=N)N)cc2)cc1 94

Look up growth inhibition for this compound: CN(C)Cc1cc(N=Nc2ccc(Cl)c(Cl)c2)ccc1O 40

Look up growth inhibition for this compound: CS(=O)(=O)OCCN(CCOS(C)(=O)=O)c1ccc(C=Nc2cc(Br)c(O)c(Br)c2)c(Cl)c1 96

Look up growth inhibition for this compound: CC(C)(C)C1=CC(=CC=C2C=CN(CCO)C=C2)C=C(C(C)(C)C)C1=O 28

Look up growth inhibition for this compound: C1CCC(C2CCC(N3CCCCC3)CC2)CC1 (stereo not drawn) 84

Look up growth inhibition for this compound: Cc1ccccc1P(=O)(c1ccccc1C)c1ccccc1C 24

Look up growth inhibition for this compound: c1ccc(SSc2ccccn2)nc1 99

Look up growth inhibition for this compound: O=C1C=CC(=O)c2nc3c(nc21)[nH]c1ccccc13 93

Look up growth inhibition for this compound: O=C(Nc1ccccc1)c1ccccc1O 92

Look up growth inhibition for this compound: C=C1CCCCC1C(C(=O)O)(c1ccccc1)c1ccccc1 (stereo not drawn) 99

Look up growth inhibition for this compound: OC(COc1ccc(Cl)cc1)CN1CCN(c2cccc(Cl)c2)CC1 (stereo not drawn) 98

Look up growth inhibition for this compound: CC(CCC(=O)O)[C@H]1CCC2[C@H]3C(CC[C@@]21C)[C@@]1(C)CCC(O)C[C@H]1C[C@@H]3O (stereo partly drawn) 86

Look up growth inhibition for this compound: Cc1ncc(CO)c(C=NCCCCCCN=Cc2c(CO)cnc(C)c2[O-])c1[O-].[Cu+2] -1

Look up growth inhibition for this compound: N#CC(C#N)=C(C1CC1)C1CC1 93

Look up growth inhibition for this compound: Cn1cnc([N+](=O)[O-])c1Sc1nc2ccccc2s1 97

Look up growth inhibition for this compound: O=[N+]([O-])/C(Cl)=C(\Nc1ccccc1)C(Cl)=C(Cl)Cl 99

Look up growth inhibition for this compound: COc1ccc(/C=C2\CCC(CN3CCOCC3)C2=O)cc1 (stereo not drawn) 99

Look up growth inhibition for this compound: CCCCCCN(CCCCCC)CCCCCC 12

Look up growth inhibition for this compound: CCCCOC(c1ccccc1)N1CCCCC1 (stereo not drawn) -4

Look up growth inhibition for this compound: COC(=O)c1ccc([N+](=O)[O-])o1 71

Look up growth inhibition for this compound: Cc1c(C)c(O)c2c(c1O)C(=O)C=C(Cl)C2=O 97

Look up growth inhibition for this compound: O=[N+]([O-])c1ccc(N/N=C/CCCCCCCCCCBr)c([N+](=O)[O-])c1 1

Look up growth inhibition for this compound: CC1(C)CCC2(C(=O)O)CCC3(C)C(=CCC4C5(C)CC(O)C(O)C(C)(C(=O)O)C5CCC43C)C2C1 (stereo not drawn) 99

Look up growth inhibition for this compound: O=C(Nc1ccc(Cl)cc1)NS(=O)(=O)c1c(-c2ccccc2)oc2ccccc2c1=O 97

Look up growth inhibition for this compound: COc1ccc(CCBr)cc1 -7

Look up growth inhibition for this compound: S=C(SSSSC(=S)N1CCCCC1)N1CCCCC1 95

Look up growth inhibition for this compound: CCCCC(CCCC)=NNC(=S)SC 80

Look up growth inhibition for this compound: CCCCn1cnc2c(SCc3ccccc3[N+](=O)[O-])nc(N)nc21 30

Look up growth inhibition for this compound: CC1CCN(CCCOC(=O)c2ccccc2)CC1 64

Look up growth inhibition for this compound: Nc1ncnc2nc(SCCO)[nH]c12 -2

Look up growth inhibition for this compound: Cc1ccc(S(=O)(=O)NNc2nc(N3CCOCC3)nc(N3CCOCC3)n2)cc1 -1

Look up growth inhibition for this compound: CC(C)CCCCCCCCCCCCC(=O)NCC(=O)NC1C(O)C(O)C(Nc2ncnc3nc[nH]c23)OC1C(O)CO (stereo not drawn) 63

Look up growth inhibition for this compound: CC1=C(C(=O)Nc2ccccc2)C(c2cccc3ccccc23)C(C(=O)Nc2ccccc2)=C(C)N1 53

Look up growth inhibition for this compound: CN1CC(CN2CCCCC2)C(O)C(c2ccccc2)C1 (stereo not drawn) -8

Look up growth inhibition for this compound: C=C(Br)CN(CC)CC -72

Look up growth inhibition for this compound: CCCCCCCCCCCC(=O)NCCc1ccc(O)c(O)c1 91

Look up growth inhibition for this compound: O=C1OC(C2OC(=O)C(=O)C2C(=O)c2ccc(Cl)cc2)C(C(=O)c2ccc(Cl)cc2)C1=O (stereo not drawn) 43

Look up growth inhibition for this compound: CCCCCCCCCCCCS -3

Look up growth inhibition for this compound: O=C(/C=C/c1ccccc1)c1ccc(NCc2nc3ccccc3[nH]2)cc1 85

Look up growth inhibition for this compound: CCCCNCCC(SSSC(CCNCCCC)c1ccc(Cl)cc1)c1ccc(Cl)cc1 (stereo not drawn) 98

---

Test: NCI Yeast Anticancer Drug Screen. Data for the sgs1 mgt1 strain (AID 161);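 note: 0% = growth of cultures given vehicle only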
Conditions: S. cerevisiae sgs1 mgt1 strain, at 50.0 µM, active compounds read high
The panel holds about 79,000 compounds, 15% with a hit somewhere; the sample as a whole holds those more often.
The threshold is inclusive: growth inhibition of exactly 60% counts as 1.0; values below receive 0.0.

Confirm if growth inhibition reported for the molecule COc1cc(NS(=O)(=O)c2ccc(NC(C)c3ccc4cccnc4c3O)cc2)nc(OC)n1 (stereo not drawn) is 60% or above. 1.0

Confirm if growth inhibition reported for the molecule COc1ccccc1/C=C1\C=Cc2ccccc21 is 60% or above. 0.0

Confirm if growth inhibition reported for the molecule CCCCCCCCCCCOc1cccc(N2C(N)=NC(N)=NC2(C)C)c1 is 60% or above. 1.0

Confirm if growth inhibition reported for the molecule CC1(C)[C@H]2CC[C@]1(C)[C@H](OC(=O)NNC(=O)O[C@@H]1C[C@@H]3CC[C@@]1(C)C3(C)C)C2 is 60% or above. 0.0

Confirm if growth inhibition reported for the molecule CCCCN(CCCC)CC(O)Cc1cc2ccccc2c2ccccc12 (stereo not drawn) is 60% or above. 1.0

Confirm if growth inhibition reported for the molecule COc1cccc2c1N[S@](=O)S2 is 60% or above. 1.0

Confirm if growth inhibition reported for the molecule CCCCN(c1ccccc1)c1ncnc2c1ncn2C is 60% or above. 1.0

Confirm if growth inhibition reported for the molecule CC(C)(C)C(NO)C(O)N1CCCCC1 (stereo not drawn) is 60% or above. 0.0

Confirm if growth inhibition reported for the molecule [O-][n+]1c2ccccc2cc2c1c1ccccc1n2O is 60% or above. 0.0

Confirm if growth inhibition reported for the molecule CC(C)Cn1cnc2c(SCc3cccc(F)c3)nc(N)nc21 is 60% or above. 1.0

Confirm if growth inhibition reported for the molecule CCn1c2ccc(N)cc2c2c(N)c(-n3cccc3)ccc21 is 60% or above. 1.0

Confirm if growth inhibition reported for the molecule CCOC(=O)c1ccc(O)c(C=O)c1 is 60% or above. 1.0

Confirm if growth inhibition reported for the molecule COc1ccc(Cc2ccc3c(C)cc(Cl)nc3c2)cc1 is 60% or above. 1.0

Confirm if growth inhibition reported for the molecule C/C(=N/NC(=O)c1ccccc1S(N)(=O)=O)C(CN1CCCCC1)C(C1=C(O)C2C=CC=CC2OC1=O)c1ccccc1 (stereo not drawn) is 60% or above. 1.0

Confirm if growth inhibition reported for the molecule O=C/C(Br)=C\c1ccccc1 is 60% or above. 0.0

Confirm if growth inhibition reported for the molecule CCOC(=O)/C(=C\n1c(=O)sc2ccccc21)C(=O)c1ccccc1 is 60% or above. 1.0

Confirm if growth inhibition reported for the molecule COP(=O)(OC)OCC1OC(n2cnc3c(N)ncnc32)C(O)C1O (stereo not drawn) is 60% or above. 1.0

Confirm if growth inhibition reported for the molecule CN1C(Cl)=NS(=O)(=O)c2ccccc21 is 60% or above. 0.0

Confirm if growth inhibition reported for the molecule N#CC1(C#N)C(C#N)(C#N)C12CCCC2 is 60% or above. 1.0

Confirm if growth inhibition reported for the molecule Oc1cc(-[n+]2ccc3ccccc3c2)c(O)c2ccccc12 is 60% or above. 0.0

Confirm if growth inhibition reported for the molecule C=CS(=O)(=O)Cc1ccc(Cl)cc1 is 60% or above. 1.0

Confirm if growth inhibition reported for the molecule Nc1nnc2nc(CC(=O)c3ccc([N+](=O)[O-])cc3)c(CC(=O)c3ccc([N+](=O)[O-])cc3)nn12 is 60% or above. 0.0

Confirm if growth inhibition reported for the molecule Cc1ccc(NC(=O)Oc2ccc(OC(=O)Cc3ccccc3)cc2)cc1NC(=O)Oc1ccc(OC(=O)Cc2ccccc2)cc1 is 60% or above. 1.0

Confirm if growth inhibition reported for the molecule CCOC(=O)Cc1csc2[n+]1C(=O)/C(=C\c1cccc(Cl)c1Cl)S2 is 60% or above. 1.0

Confirm if growth inhibition reported for the molecule O=[N+]([O-])C(=C(Nc1ccccc1)Nc1ccccc1)/C(Cl)=C(\Cl)Br is 60% or above. 1.0

Confirm if growth inhibition reported for the molecule CCCCCC(/C=N/NC(N)=S)C(O)(C(F)(F)F)C(F)(F)F (stereo not drawn) is 60% or above. 1.0

Confirm if growth inhibition reported for the molecule COc1cc2c(cc1OC)[C@H]1C(=O)c3cc4c(cc3[C@H]1N(C)C2=O)OCO4 is 60% or above. 0.0

Confirm if growth inhibition reported for the molecule CC(C)=CC(=O)OC(CCCc1ccccc1)c1ccc2c(c1)OCO2 (stereo not drawn) is 60% or above. 0.0

Confirm if growth inhibition reported for the molecule O=C1/C(=C\c2ccc(Cl)cc2Cl)Sc2scc(-c3cccc([N+](=O)[O-])c3)[n+]21 is 60% or above. 1.0

Confirm if growth inhibition reported for the molecule [N-]=[N+]=Nc1c(-c2ccccc2)c(Cl)nc2ccccc12 is 60% or above. 1.0

Confirm if growth inhibition reported for the molecule CC(C)(O)[C@H](CCO)O[Si](c1ccccc1)(c1ccccc1)C(C)(C)C is 60% or above. 1.0

Confirm if growth inhibition reported for the molecule CC(CC(C)[C@H]1CCC2[C@H]3C(CC[C@@]21C)[C@@]1(C)CCC(O)C[C@H]1C[C@@H]3O)C(=O)O (stereo partly drawn) is 60% or above. 1.0

Confirm if growth inhibition reported for the molecule O=C(CC(C[N+](=O)[O-])c1ccc2c(c1)OCO2)c1ccccc1 (stereo not drawn) is 60% or above. 0.0

Confirm if growth inhibition reported for the molecule CC(=O)OCC1OC(n2c(O)c(N=NC(N)=S)c3ccc([N+](=O)[O-])cc32)C(OC(C)=O)C1OC(C)=O (stereo not drawn) is 60% or above. 1.0

Confirm if growth inhibition reported for the molecule CC(=O)O[C@@H]1CO[C@H]2O[C@H]3[C@@H](C(C=O)=C[C@H](O)[C@@H]4C5=C(C(C)C)CC[C@]5(C)CC[C@@]34C)[C@@]2(O)C1=O is 60% or above. 1.0

Confirm if growth inhibition reported for the molecule CC(C)=CCC/C(C)=C/CCC1(C)C=Cc2c(c3ccccc3oc2=O)O1 (stereo not drawn) is 60% or above. 0.0

Confirm if growth inhibition reported for the molecule c1ccc2c(CCc3ccncc3)cccc2c1 is 60% or above. 1.0

Confirm if growth inhibition reported for the molecule O=C(N/C(=C\c1nc2ccccc2s1)c1ccccc1O)c1ccccc1 is 60% or above. 0.0

Confirm if growth inhibition reported for the molecule C(=C\c1ccc(-[n+]2nc(-c3ccccc3)nn2-c2ccccc2)cc1)/c1ccccc1 is 60% or above. 1.0

Confirm if growth inhibition reported for the molecule COC(=O)Nc1nc2ccc(C(C)(O)c3cccs3)cc2[nH]1 (stereo not drawn) is 60% or above. 1.0

Confirm if growth inhibition reported for the molecule O=C1C(Br)=C(Br)C(=O)c2ccccc21 is 60% or above. 1.0
